B1: TPR t1 (parent)
chain: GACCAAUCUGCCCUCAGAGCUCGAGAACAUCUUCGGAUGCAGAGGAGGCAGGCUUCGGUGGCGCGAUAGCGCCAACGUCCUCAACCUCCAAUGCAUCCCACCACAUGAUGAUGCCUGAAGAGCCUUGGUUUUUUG

variants of: B1; assay: polymerase ribozyme fitness, log enrichment relative to wild type (log ratio); higher = more active; in vitro selection for triplet polymerase activity
Recorded polymerase ribozyme fitness (log ratio) for the following variants
Form: value (number only, do not type unit).

// known answers, use as guide
- G10A G45A A95C C102A: -2.76
- A2G C62U A83G: -1.82
- C53U C80A: -4.94
- A46U G63A C85G A121C: -1.37
- C85U G113U: -3.63
- C28U G135U: -2.44
- G93C U112A: 0.679
- C72U C79A U106C: -1.81

QUERY: Name the reported polymerase ribozyme fitness (log ratio) value associated with the variant C12U G117U
RESULT: 0.316

QUERY: Name the reported polymerase ribozyme fitness (log ratio) value associated with the variant C88U G120U U126G
RESULT: -3.22

QUERY: Name the reported polymerase ribozyme fitness (log ratio) value associated with the variant C12U A29U G52C C73U
RESULT: -1.91

QUERY: Name the reported polymerase ribozyme fitness (log ratio) value associated with the variant A29G C101G
RESULT: -4.66

QUERY: Name the reported polymerase ribozyme fitness (log ratio) value associated with the variant C56A C104G A118G C124G
RESULT: -5.79

QUERY: Name the reported polymerase ribozyme fitness (log ratio) value associated with the variant G17U C20U A26G G42C A83U C124U U130G
RESULT: -5.83

QUERY: Name the reported polymerase ribozyme fitness (log ratio) value associated with the variant A2C C12G G69U
RESULT: 0.12

QUERY: Name the reported polymerase ribozyme fitness (log ratio) value associated with the variant C12A C22U C56U A83C U125A
RESULT: -4.56

QUERY: Name the reported polymerase ribozyme fitness (log ratio) value associated with the variant C56A G58C C114U
RESULT: -2.47

QUERY: Name the reported polymerase ribozyme fitness (log ratio) value associated with the variant C70U U81G A84C G122A
RESULT: -5.65

QUERY: Name the reported polymerase ribozyme fitness (log ratio) value associated with the variant A27U G60U C82A U125G
RESULT: -3.48

QUERY: Name the reported polymerase ribozyme fitness (log ratio) value associated with the variant C73U U81A C98A G113A G117U U131G
RESULT: -5.03

QUERY: Name the reported polymerase ribozyme fitness (log ratio) value associated with the variant A2U C115G
RESULT: -3.95

QUERY: Name the reported polymerase ribozyme fitness (log ratio) value associated with the variant U59A C88G
RESULT: -1.44

QUERY: Name the reported polymerase ribozyme fitness (log ratio) value associated with the variant U7C C12U C22U G63A
RESULT: -4.58

QUERY: Name the reported polymerase ribozyme fitness (log ratio) value associated with the variant G45U U78C
RESULT: -1.46
